- ASSAYED TARGET: T1, human GFRα3 expressed with a C-terminal myc-myc-hexahistidine tag (human, UniProt O60609 32-374, biotinylated (sites not given) in ELISA format 2 and in the Octet cross-competition; not in SPR)
- T1 construct: also called hGFRα3-mmh; hGFRα3-mmH
- T1 sequence (O60609 other isoform, or with tags, fused parts or gaps limits assumed): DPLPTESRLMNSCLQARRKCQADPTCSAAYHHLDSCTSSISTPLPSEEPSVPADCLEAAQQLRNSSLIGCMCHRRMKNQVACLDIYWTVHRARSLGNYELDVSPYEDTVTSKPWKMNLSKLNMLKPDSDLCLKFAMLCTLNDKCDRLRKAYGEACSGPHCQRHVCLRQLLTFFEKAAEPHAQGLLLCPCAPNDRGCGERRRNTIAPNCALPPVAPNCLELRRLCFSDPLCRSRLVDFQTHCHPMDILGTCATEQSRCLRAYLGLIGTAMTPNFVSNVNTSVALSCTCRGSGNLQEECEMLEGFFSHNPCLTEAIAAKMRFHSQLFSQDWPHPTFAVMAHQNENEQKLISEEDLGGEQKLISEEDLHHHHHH
- ASSAY TEXT: Octet cross-competition; biotin-hGFRα3-mmH pre-saturated with first antibody H4H2243N2
- Procedure: A cross-competition assay was conducted to assess the ability of select antibodies to compete with one another for binding to human GFRα3 using an Octet RED384 biosensor (Fortebio Inc.). […] The real-time binding response was monitored during the course of the experiment and the binding response at the end of every step was recorded as shown in FIG. 9. […]
READOUT KIND: binding response of second antibody (nm)
Express your answer as a number followed by its unit.

H4H2294S (antibody, human IgG4, V domains shown, human IgG4 Fc (H4H)) VH: EVQLVESGGGLVQPGGSLRLSCAASGFTFSSYAMSWVRQAPGKGLEWVSVISGSGGSTYYADAVKGRFTISRDNSKHTLYLQMNSLRAEDTAVYYCTKPSSYSSSNFYYGMDVWGQGSTVTVSS VL: DIQLTQSPSSVSASVGDRVTITCRASQGISSWLAWYQQKPGKAPKLLIYAASSLQSGVPSRFSGSGSGTDFTLTISSLQPEDFATYYCQQTNSFPFPFGPGTKVDIK    0.29 nm
H4H2295S (antibody, human IgG4, V domains shown, human IgG4 Fc (H4H)) VH: EVQLVESGGGLVQAGGSLRLSCVASGFTFSSYAMSWVRQAPGKGLEWVSAISGSGGSTYSADSVKGRFTISRDNSKNTLYLQMNSLRAEDTAVYYCTKPSSYSSSNFYYGMDVWGQGTTVTVSS VL: DIQMTQSPSSVSASVGDRVTITCRASQGISSWLAWYQQKPGKAPKLLIYTASSLQSGVPSRFSGSGSRTDFTLTISSLQPEDFATYYCQQTNSLPLTFGPGTKVEIK    0.39 nm
H4H2357S (antibody, human IgG4, V domains shown, human IgG4 Fc (H4H)) VH: EVQLVESGGGLVQPGGSLRLSCAASTFTFSSYAMTWVRQAPGKGLEWVSSISGSGDSTYYADSVKGRFTISRDNSKNTLFLQMNSLRAEDTAVYYCAKKDGPGRYYVRYGMDVWGQGTTVTVSS VL: DIQMTQSPSSVSASVGDRVTITCRASQGISSWLAWYQQKPGKAPKLLIYTTSSLQSGVPSRFSGSGSGTDFTLTISSLQPEDFATYYCQQANSFPLTFGGGTKVDIK    0.32 nm

Retrieve binding response of second antibody (nm) measured for H4H2243N2 (antibody, human IgG4, V domains shown, human IgG4 Fc (H4H)) VH: QVQLVQSGAEVKKPGASVKVSCKASGYTFTSYGIIWVRQAPGQGLEWMGWISGYNGNTNYAQNLQGRVTMTTDTSTTTAYMELRSLRSDDTAVYYCARWGIATRPYYYYGMDVWGQGTTVTVSS VL: DIQMTQSPSSLSASVGDRVTITCRASQDITNYLAWFQQKPGKAPKSLIYAASSLQSGVPSKFSGSGSGTDFTLTISSLQPEDFATYYCQQYNSYPPTFGPGTKVDIK and print it.
0.06 nm
